# study target: T1, SH2 domain of Crkl protein (residues 1-111), H91A variant (UniProt P46109 1-111, H91A)
# T1 construct: Crkl adaptor protein, SH2 domain, residues 1-111, His91 replaced by alanine; Site-directed mutant of m1 (QuikChange); source: E. coli BL21 (DE3), purified (HisTrap nickel column, desalting); not shown: His tag, N-terminal, kept
# T1 sequence (P46109 1-111 H91A): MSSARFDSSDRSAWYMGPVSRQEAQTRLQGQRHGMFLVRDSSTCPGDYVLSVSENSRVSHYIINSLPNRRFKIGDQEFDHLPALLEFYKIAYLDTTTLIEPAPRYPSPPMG
# protocol: stopped-flow fluorescence kinetics (FRET); dansyl-Pax112-123 constant at 2 μM mixed with Crkl-SH2 2 to 10 μM (pseudo-first-order, kon); koff by displacement of the preincubated 2 µM complex with excess non-dansylated Pax112-123 (30 μM); 283 K; 50 mM TrisHCl pH 8.0, 0.5 M NaCl
# test context: both partners purified
pKd: −log10 of the molar value. Square brackets hold non-standard residues; d marks the D form. Ends that are not written are not given here. * marks the point of attachment. pY = N[C@@H](Cc1ccc(OP(=O)(O)O)cc1)C(=O)O; Dansyl = CN(C)c1cccc2c(S(=O)(=O)*)cccc12
measured metric: pKd

binder | value
Dansyl-GEEEHV[pY]SFPNK (The dansyl group is the FRET acceptor of Trp14 of the SH2 domain; source: synthetic peptide, bought: GenScript) [dansylated Pax_(112–123) peptide (Dans-GEEEHV-pY-SFPNK)] | 5.54

Values were extracted from paper PMC9332313.
